Reported IC50 by item:
Biological target: Recombinant STAT6 protein (STAT6(W123-T658)) (Homo sapiens, UniProt P42226)
Construct: Recombinant STAT6 protein (STAT6(W123-T658))
Sequence (P42226 123-658): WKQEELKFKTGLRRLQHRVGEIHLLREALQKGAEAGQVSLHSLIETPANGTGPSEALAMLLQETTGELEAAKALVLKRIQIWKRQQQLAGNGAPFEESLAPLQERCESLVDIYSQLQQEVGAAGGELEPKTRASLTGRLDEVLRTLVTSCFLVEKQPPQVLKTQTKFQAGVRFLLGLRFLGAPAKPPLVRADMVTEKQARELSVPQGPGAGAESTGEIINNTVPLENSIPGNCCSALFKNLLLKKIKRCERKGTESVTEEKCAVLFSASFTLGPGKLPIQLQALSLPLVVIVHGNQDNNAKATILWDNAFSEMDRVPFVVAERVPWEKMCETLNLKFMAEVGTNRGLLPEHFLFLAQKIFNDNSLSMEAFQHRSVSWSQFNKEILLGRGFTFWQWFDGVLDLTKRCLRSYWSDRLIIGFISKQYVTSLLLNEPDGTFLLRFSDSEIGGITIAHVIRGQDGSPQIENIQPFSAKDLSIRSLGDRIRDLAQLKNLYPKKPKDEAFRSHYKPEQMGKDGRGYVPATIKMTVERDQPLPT
Test: STAT6 Fluorescence Polarization (FP) Assay
Settings: STAT6(W123-T658) 250 nM, probe 5-FAM-ApYKPFQDLI-NH2 2 nM, 45-minute incubation

Guide cases for IC50, answers given:
I am curious: what IC50 value has been reported for CC(=O)N1CC[C@H]2CC[C@@H](C(=O)Nc3ccc4nnccc4c3)N2C(=O)[C@@H](NC(=O)c2cc3cc(C(F)(F)P(=O)(O)O)ccc3s2)C1 ?
≤ 0.3 µM

I am curious: what IC50 value has been reported for C[C@@H](C(=O)N1CC[C@H]2CC[C@@H](C(=O)Nc3ccc(-c4ccccc4)cc3)N2C(=O)[C@@H](NC(=O)c2cc3cc(C(F)(F)P(=O)(O)O)ccc3[nH]2)C1)c1ccccc1 ?
0.3 to 3 µM

We now examine a further compound.
I am curious: what IC50 value has been reported for CCN1CC[C@H]2CC[C@@H](C(=O)N3C[C@@H](C#N)[C@H](c4cc[nH]c(=O)c4)C3)N2C(=O)[C@@H](NC(=O)c2ccc3ccc(C(F)(F)P(=O)(O)O)cc3c2)C1 (relative stereo) [Compound 240] ?
0.3 to 3 µM
